B1: glmS ribozyme (parent)
chain: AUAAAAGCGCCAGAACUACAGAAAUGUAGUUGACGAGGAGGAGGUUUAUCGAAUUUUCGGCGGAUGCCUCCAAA

variants of: B1; experiment: self-cleavage kobs at 640 uM GlcN6P; higher = faster cleavage; RNA array; settings: with glucosamine-6-phosphate
This sample holds only a part of the variants without activity.
Give measured self-cleavage kobs at 640 uM GlcN6P for each item. Keep answers brief.
Entry rule: numbers only, all in s⁻¹.

Per the record, A14C G29C has self-cleavage kobs at 640 uM GlcN6P of 6.24e-05

Per the record, C61A C67A has self-cleavage kobs at 640 uM GlcN6P of 5.15e-05

Per the record, C11U C50A C70G has self-cleavage kobs at 640 uM GlcN6P of 0.000365

Per the record, G13U C50G has self-cleavage kobs at 640 uM GlcN6P of 6.9e-05

Per the record, G29U U45C has self-cleavage kobs at 640 uM GlcN6P of 7.89e-05

Per the record, A53C A64G has self-cleavage kobs at 640 uM GlcN6P of 0.00177

Per the record, C16U G66A has self-cleavage kobs at 640 uM GlcN6P of 0.00417

Per the record, G9A C11U C16U G63A U65G C68G has self-cleavage kobs at 640 uM GlcN6P of 7.82e-05

Per the record, G40A A53U has self-cleavage kobs at 640 uM GlcN6P of 0.00107

Per the record, A15G C16G C50G U54C has self-cleavage kobs at 640 uM GlcN6P of 0.00183

Per the record, U30A U47G has self-cleavage kobs at 640 uM GlcN6P of 0.000406

Per the record, A14U C68U has self-cleavage kobs at 640 uM GlcN6P of 0.000297

Per the record, C16U C58U C67U C70U has self-cleavage kobs at 640 uM GlcN6P of 0.000267

Per the record, A12C G66U C70G has self-cleavage kobs at 640 uM GlcN6P of 7.67e-05

Per the record, U45A C70A has self-cleavage kobs at 640 uM GlcN6P of 0.000179

Origin of measurements: the supplement of paper PMC7125110
